assay name: NF-kB reporter blockers in CF airway cells – cell-based, GFP fluorescence, uHTS, primary screen (AID 588850);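 also: PAF is a Pseudomonas aeruginosa culture filtrate used as stimulus; plate controls were PAF-stimulated DMSO wells for no effect and unstimulated DMSO wells for full effect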
test conditions: KKLEB NF-kB-GFP reporter, PAF-induced, GFP fluorescence overnight; at 5 µM; hits give high values
Out of some 360,000 compounds screened, about 3,100 (0.86%) were called active. Only a selection was taken, and actives are over-represented in it overall.
Binary call on inhibition: TRUE from 10% upward, FALSE beneath that.

Completed entries (count: 5):
- compound: "CC(C)(C)OC(=O)NCCCCCC(=O)N/N=C/c1coc2ccccc2c1=O"
  group label: "FALSE"
- compound: "Cc1nn(-c2ccccc2)c(C)c1/C=N/NC(=O)CSc1nc2ccccc2c(=O)n1-c1ccccc1"
  group label: "TRUE"
- compound: "O=c1c(/C=N/O)coc2ccc(Cl)cc12"
  group label: "FALSE"
- compound: "COC(=O)C1=C(C)NC2=C(C(=O)c3ccccc32)C1c1ccc(-c2ccc(C(=O)O)cc2)o1 (configuration not stated)"
  group label: "TRUE"
- compound: "O=C(COC(=O)c1cccnc1Cl)Nc1ccc(S(=O)(=O)N2CCOCC2)cc1"
  group label: "FALSE"

Ask: Confirm if inhibition reported for the compound O=C1Nc2ccccc2/C1=C/c1ccnc2ccccc12 is 10% or above.
Result: TRUE

Ask: Does inhibition meet or surpass 10% for CCOc1ccccc1Oc1cn[nH]c1-c1ccc(OC)cc1O ?
Result: TRUE

Ask: State whether the measured inhibition reaches 10%, counting equality as reaching it, for Cc1ccc(-n2ncc3c2CC(C)(C)CC3NC(=O)Cc2c(C)noc2C)cc1 (configuration not stated)
Result: TRUE

Ask: Could you verify whether the entry Cc1ccc2occ(/C=N/NC(=O)c3ccccc3C)c(=O)c2c1 shows inhibition of no less than 10%?
Result: TRUE

Ask: Tell me whether inhibition is at least 10% here: COc1cccc2sc(N(CCCN(C)C)C(=O)CCS(=O)(=O)c3ccccc3)nc12
Result: TRUE

Ask: Is the recorded value of inhibition equal to or greater than 10% for this compound? Cc1ccc(SCC(=O)c2cc(C)c(OC(=S)N(C)C)c(C)c2)cc1
Result: FALSE

Ask: Answer whether inhibition of CCC12CN3CC(CC)(CN(C1)C31C(=O)N(C)c3ccc(C)cc31)C2=O (configuration not stated) is greater than or equal to 10%.
Result: FALSE

Ask: Confirm if inhibition reported for the compound CS(=O)(=O)c1cccc(-c2ccc3nncn3c2)c1 is 10% or above.
Result: FALSE

Ask: Please check the record Cc1nn(-c2ccccc2)c(Cl)c1/C=N/NC(=O)c1nn(C)cc1[N+](=O)[O-] and state if its inhibition is at or above 10%.
Result: TRUE

Ask: Given the entry O=C(Nn1c(-c2ccc(Cl)cc2)nc2ccccc2c1=O)c1cccnc1Cl , answer whether its inhibition meets or surpasses 10%.
Result: FALSE

Ask: hey, is inhibition for this one >= 10%? COc1cc(C(C(=O)NC2CCCC2)N(Cc2ccccc2)C(=O)c2snc(C(N)=O)c2N)ccc1O (configuration not stated)
Result: FALSE

Ask: Confirm if inhibition reported for the compound O=C(Nc1ccccc1)c1ccccc1Br is 10% or above.
Result: FALSE

###

assay name: NF-kB reporter blockers in CF airway cells – cell-based, GFP fluorescence, uHTS, primary screen (AID 588850);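 also: PAF is a Pseudomonas aeruginosa culture filtrate used as stimulus; plate controls were PAF-stimulated DMSO wells for no effect and unstimulated DMSO wells for full effect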
test conditions: KKLEB NF-kB-GFP reporter, PAF-induced, GFP fluorescence overnight; at 5 µM; hits give high values
Screen size: about 360,000 compounds; about 3,100 (0.86%) were called active. The sample as a whole holds a higher share of actives than the screen did.
Below, each entry is listed with its recorded inhibition.
Reply with just the number (in %).

Sample records with inhibition:
- compound: "CC(=O)N1CCN(CC(=O)Nc2ccc(SC(F)F)cc2)CC1"
  scale unit: "%"
  inhibition: 5.2
- compound: "COCCCN(C(=S)Nc1c(C)cc(C)cc1C)C(C)c1ccncc1 (stereo unspecified)"
  scale unit: "%"
  inhibition: -10.4
- compound: "Cc1ccc(CNC(=O)c2ccc(CS(=O)Cc3cccc(Cl)c3)o2)cc1 (stereo unspecified)"
  scale unit: "%"
  inhibition: 1.3
- compound: "CCN(Cc1ccccc1)C(=O)CSc1nc(C)cc2c1C(=O)OC2"
  scale unit: "%"
  inhibition: 5
- compound: "Cc1ccc(S(=O)(=O)N2C3C=CC(C3)C2C(=O)O)cc1 (stereo unspecified)"
  scale unit: "%"
  inhibition: 1.4

Switching to the query record.
Record summary for CC1(C)Cc2c(sc3nc(SCC(=O)NCc4ccccc4)n(-c4ccccc4)c(=O)c23)CS1 : reported inhibition = 4.3
